test system: NCI-H522 lung; experiment: NCI tumour cell line growth inhibition, 48 h
MEASUREMENT KIND: TGI (µM)

COMPOUND | LIMIT SIGN | TEST VALUE
Clc1nc(Cl)c2ncn(CC#CCn3cnc4c(Cl)nc(Cl)nc43)c2n1 | = | 3.51
O=S(CCc1ccccc1)Nc1ccccc1 (stereo unspecified) | > | 100
CCc1nc(N)nc(N)c1-c1ccc2c(c1)nnn2CCc1ccccc1 | = | 33.9
O=C(OC1C=C=CS(=O)(=O)CC#C/C=C\1)c1cnc2ccccc2n1 (stereo unspecified) | = | 51.6
COc1ccc2c3ccc4c(c3n(C)c2c1)C(=O)C=CC4=O | = | 22.4
Cc1ccc(N=Nc2c(-c3ccccc3)nn(C(=O)CC(=O)Nc3ccc(Cl)cc3)c2-c2ccccc2)cc1 | > | 100

---

system: SF-268 CNS; assay: NCI tumour cell line growth inhibition, 48 h
MEASUREMENT KIND: TGI

COMPOUND | TARGET SYSTEM | MEASUREMENT KIND | TEST VALUE
CC(=O)Nc1ccc(C2C(C(=O)Nc3ccccc3C)=C(C)NC(C)=C2C(=O)Nc2ccccc2C)cc1 | SF-268 CNS | TGI | > 100 µM
Cc1ccc(N=Nc2c(-c3ccccc3)nn(C(=O)CC(=O)Nc3ccc(Cl)cc3)c2-c2ccccc2)cc1 | SF-268 CNS | TGI | > 100 µM
CCc1cccc(CC)c1NC(=O)C(=O)Cc1nc2ccccc2o1 | SF-268 CNS | TGI | > 100 µM
Cc1ccc(C2(C)CC/C(=N/N=C3/CCC(C)(c4ccc(C)c(C)c4)c4cc(C)c(C)cc43)c3cc(C)c(C)cc32)cc1C (stereo not given) | SF-268 CNS | TGI | > 100 µM
O=C1C[C@@H](c2ccc(O)cc2)[C@@]2(O1)C(=O)O[C@H]([C@@H](O)CO)[C@@H]2O | SF-268 CNS | TGI | > 100 µM
CC(C)OC(=O)Nc1ccc(-c2nc(-c3cccc(OCCN4CCOCC4)c3)c(-c3ccnc(Br)c3)[nH]2)cc1 | SF-268 CNS | TGI | > 100 µM
O=C1C=C(Nc2ccccc2C(=O)c2ccccc2)c2ccccc2C1=O | SF-268 CNS | TGI | > 100 µM
COc1cc(C(=O)/C=C/c2c(C)n([O-])c3ccc(C(F)(F)F)cc3[n+]2=O)cc(OC)c1OC | SF-268 CNS | TGI | 37.4 µM
CC(C)(C)N1C(=O)N=[N+](/C(=C(\c2ccccc2)n2nc([O-])n(C(C)(C)C)c2=O)c2ccccc2)C1=O | SF-268 CNS | TGI | > 100 µM
CCCCCC(=O)n1[nH]c(=O)n(-c2ccc(OC)cc2)c1=O | SF-268 CNS | TGI | > 100 µM
Cc1cn(C2CC(Br)C(COC(c3ccccc3)(c3ccccc3)c3ccccc3)O2)c(=O)[nH]c1=O (stereo not given) | SF-268 CNS | TGI | 28.4 µM
CCCCC1C=Cn2c(=O)oc3c(OC(C)C)c(OC(C)C)c(O)c1c32 (stereo not given) | SF-268 CNS | TGI | 44.9 µM
O=C(CSc1nnc(Cc2ccccc2)o1)Nc1ccc(Cl)cc1Cl | SF-268 CNS | TGI | > 100 µM
CCOC(=O)N1CCN(c2ccc3ccc(N)nc3n2)CC1 | SF-268 CNS | TGI | > 100 µM
C=C1CCC(O)C/C1=C/C=C1\CCCC2(C)C1CCC2C(C)CCCC(C)C (stereo not given) | SF-268 CNS | TGI | 46.5 µM
CCOC(=O)c1ccc2c(c1)c1c(C)c3cnccc3c(C)c1n2C | SF-268 CNS | TGI | 0.823 µM
N#CC1=C(Cl)NC(Cl)=C(C#N)C1c1ccc(Cl)cc1 | SF-268 CNS | TGI | 33 µM
O=S(=O)(c1ccccc1)[C@H]1[C@@H]2O[C@@H]2C[C@@H]1O | SF-268 CNS | TGI | > 100 µM
Cn1c(N)c(Cc2ccc(Cl)cc2)c(=O)[nH]c1=O | SF-268 CNS | TGI | > 100 µM
O=C(CC(=O)Nc1ccc(C(=O)O)cc1)Nc1ccc(C(=O)O)cc1 | SF-268 CNS | TGI | > 100 µM

Taken from PubChem BioAssay (NCI).
